# tested_system: MMP-13 (Homo sapiens)
pIC50: −log10 of the molar value. Counter-ions that a name gives are not always drawn.
Classes by pIC50: L (below 6), M (6 to below 7), H (7 or more)

{"molecule": "CC#CCOc1ccc(S(=O)(=O)CC2(C(=O)NO)CCN(C(=O)C3(C)COC(C)(C)OC3)CC2)cc1", "classification": "L"}
{"molecule": "CC#CCOc1ccc(S(=O)(=O)C2(C(=O)NO)CCN(Cc3ccccc3)CC2)cc1", "classification": "H"}
{"molecule": "CC#CCOc1ccc(S(=O)(=O)C2(C(=O)NO)CCN(Cc3ccc(C(=O)OC)cc3)CC2)cc1 [Example 77, hydrochloride]", "classification": "M"}
{"molecule": "C#CCOc1ccc(S(=O)(=O)C2(C(=O)NO)CCN(Cc3ccc(Br)cc3)CC2)cc1", "classification": "H"}
{"molecule": "CC#CCOc1ccc([S+]([O-])C2(C(=O)NO)CCNCC2)cc1 (stereo not shown) [Example 81, hydrochloride]", "classification": "M"}
{"molecule": "CC#CCOc1ccc(S(=O)(=O)C2(C(=O)NO)CCN(C(CC)CC)CC2)cc1", "classification": "M"}
{"molecule": "CC#CCOc1ccc(S(=O)(=O)CC2(C(=O)NO)CCN(C(=O)NC(C)(C)C)CC2)cc1", "classification": "M"}
{"molecule": "CC#CCOc1ccc(S(=O)(=O)C2(C(=O)NO)CCNCC2)cc1 [Example 76, hydrochloride]", "classification": "L"}
{"molecule": "CC#CCOc1ccc(S(=O)(=O)CC2(C(=O)NO)CCN(C(=O)CNCc3ccccc3)CC2)cc1", "classification": "M"}
{"molecule": "CC#CCOc1ccc(S(=O)(=O)C2(C(=O)NO)CCN(S(=O)(=O)c3ccc(OC)cc3)CC2)cc1", "classification": "M"}
{"molecule": "CC#CCOc1ccc(S(=O)(=O)C2(C(=O)NO)CCN(S(=O)(=O)C(F)(F)F)CC2)cc1", "classification": "M"}
